- System: KP-4 (Pancreatic Carcinoma);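 note: after 72 h of two-drug dosing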
- test.details: Bliss excess, mean over the matrix (fraction); higher = more synergy
measure.name: Bliss excess
Lab note: jot the number down without any unit.

INSERT INTO assay_data (compound, measure_name, data_value) VALUES
  ('CC1(C)CCC(CN2CCN(c3ccc(C(=O)NS(=O)(=O)c4ccc(NCC5CCOCC5)c([N+](=O)[O-])c4)c(Oc4cnc5[nH]ccc5c4)c3)CC2)=C(c2ccc(Cl)cc2)C1 [Venetoclax] + Cn1cnc2c(F)c(Nc3ccc(Br)cc3Cl)c(C(=O)NOCCO)cc21 [Selumetinib] (first compound max 1 µM, 7x7, partner max 3 µM)', 'Bliss excess', -0.0521),
  ('CC1(C)CCC(CN2CCN(c3ccc(C(=O)NS(=O)(=O)c4ccc(NCC5CCOCC5)c([N+](=O)[O-])c4)c(Oc4cnc5[nH]ccc5c4)c3)CC2)=C(c2ccc(Cl)cc2)C1 [Venetoclax] + CCN(CCO)CCCOc1ccc2c(Nc3cc(CC(=O)Nc4cccc(F)c4)[nH]n3)ncnc2c1 [AZD2811] (first compound max 1 µM, 7x7, partner max 1 µM)', 'Bliss excess', -0.0338),
  ('COc1nnc2ccc(N3CCC(c4ccc(OCCN5CCN(C)C(=O)[C@H]5C)cc4)CC3)nn12 [AZD5153] + Cn1cnc2c(F)c(Nc3ccc(Br)cc3Cl)c(C(=O)NOCCO)cc21 [Selumetinib] (first compound max 1 µM, 7x7, partner max 10 µM)', 'Bliss excess', 0.0157),
  ('N#Cc1cnc(Nc2cc(NC[C@H]3CNCCO3)c(C(F)(F)F)cn2)cn1 [SRA737] + C=CCn1c(=O)c2cnc(Nc3ccc(N4CCN(C)CC4)cc3)nc2n1-c1cccc(C(C)(C)O)n1 [AZD1775] (first compound max 10 µM, partner max 1 µM)', 'Bliss excess', 0.0595),
  ('CN(CCO)CC[C@H](CSc1ccccc1)Nc1ccc(S(=O)(=O)NC(=O)c2ccc(N3CCC([C@@H](O)c4ccccc4-c4ccc(Cl)cc4)CC3)cc2)cc1S(=O)(=O)C(F)(F)F [AZD4320] + C1CN(CCC1(C(=O)N[C@@H](CCO)C2=CC=C(C=C2)Cl)N)C3=NC=NC4=C3C=CN4 [Capivasertib] (first compound max 1 µM, 7x7, partner max 3 µM)', 'Bliss excess', -0.0436);

-- ask Endpoint output: Bliss excess of Cc1cc2ncnn2cc1Nc1ncc2c(n1)n(C1CCOCC1)c(=O)n2C [AZD7648] + COc1cc([C@@H]2c3cc4c(cc3[C@@H](O[C@@H]3O[C@@H]5CO[C@@H](C)O[C@H]5[C@H](O)[C@H]3O)[C@H]3COC(=O)[C@H]23)OCO4)cc(OC)c1O [Etoposide] (first compound max 10 µM, 7x7, partner max 10 µM) . Value?
-- reply 0.122

-- ask Endpoint output: Bliss excess of C=CCn1c(=O)c2cnc(Nc3ccc(N4CCN(C)CC4)cc3)nc2n1-c1cccc(C(C)(C)O)n1 [AZD1775] + C[C@@H]1COCCN1C2=NC(=NC(=C2)C3(CC3)[S@](=N)(=O)C)C4=C5C=CNC5=NC=C4 [AZD6738] (first compound max 1 µM, partner max 10 µM) . Value?
-- reply 0.031

-- ask Endpoint output: Bliss excess of Cc1cc2ncnn2cc1Nc1ncc2c(n1)n(C1CCOCC1)c(=O)n2C [AZD7648] + C[C@@H]1COCCN1C2=NC(=NC(=C2)C3(CC3)[S@](=N)(=O)C)C4=C5C=CNC5=NC=C4 [AZD6738] (first compound max 10 µM, 7x7, partner max 10 µM) . Value?
-- reply 0.0727

Data origin: the supplement of paper PMC11061612
